# IC50 at 24 h per entry
# testSummary: Cytotoxicity against human MRC5 cells after 24 hrs by MTT assay
Entry format: amount then unit.

>>> measuredresult("[N-]=[N+]=Nc1cc2cc(Cl)cc(Cl)c2oc1=O")
"67.2 µM"

// query I'd like to know its IC50 at 24 h. The compound in question is `NCCC(=O)N1Cc2ccccc2-c2nnn(-c3cc4cc(Cl)cc(Cl)c4oc3=O)c2-c2ccccc21`
// result 185 µM

// query I'd like to know its IC50 at 24 h. The compound in question is COc1cccc2c1C(=O)c1c(O)c3c(c(O)c1C2=O)C[C@@](O)(C(=O)CO)C[C@@H]3O[C@H]1C[C@H](N)[C@H](O)[C@H](C)O1 [DOXORUBICIN]
// result 70.6 µM

// query I'd like to know its IC50 at 24 h. The compound in question is `[N-]=[N+]=Nc1cc2ccc(O)cc2oc1=O`
// result 62.7 µM

// query I'd like to know its IC50 at 24 h. The compound in question is `COc1cccc2cc(N=[N+]=[N-])c(=O)oc12`
// result 58.7 µM
